Data origin, for the record: ChEMBL document CHEMBL5113515

# procedure.text: Half life in overnight fasted cynomolgus monkey at 1 mg/kg, iv
# Format: ADME, organism-based, Macaca fascicularis
# condition.details: in vivo
measurement.label: half-life (min)
Express it in min; write the number only.

Just so you know, measured half-life for C=C(C)[C@@H]1CC[C@]2(NCCN3CCS(=O)(=O)CC3)CC[C@]3(C)[C@H](CC[C@@H]4[C@@]5(C)CC=C(C6=CC[C@@](CF)(C(=O)O)CC6)C(C)(C)[C@@H]5CC[C@]43C)[C@@H]12 [FIPRAVIRIMAT] came out at 318

====

# System: Human immunodeficiency virus 1
# procedure.text: Antiviral activity against HIV1 harbouring T332S/V362I/prR41G mutant infected in human MT2 cells measured after 4 to 5 days by dual-luciferase reporter assay
# Assay type: functional, organism-based
# condition.details: Human immunodeficiency virus 1, MT2
measurement.label: EC50 (nM)
Express it in nM; write the number only.

# count of solved cases: 3
C=C(C)[C@@H]1CC[C@]2(NCCN3CCS(=O)(=O)CC3)CC[C@]3(C)[C@H](CC[C@@H]4[C@@]5(C)CC=C(C6=CCC(CF)(C(=O)O)CC6)C(C)(C)[C@@H]5CC[C@]43C)[C@@H]12 (some centres undefined)
3.9
C=C(C)[C@@H]1CC[C@]2(NCCN3CCC(S(C)(=O)=O)CC3)CC[C@]3(C)[C@H](CC[C@@H]4[C@@]5(C)CC=C(C6=CCC(CCCO)(C(=O)O)CC6)C(C)(C)[C@@H]5CC[C@]43C)[C@@H]12 (some centres undefined)
7.9
C=C(C)[C@@H]1CC[C@]2(NCCN3CCS(=O)(=O)CC3)CC[C@]3(C)[C@H](CC[C@@H]4[C@@]5(C)CC=C(C6=CCC(CC(=O)O)CC6)C(C)(C)[C@@H]5CC[C@]43C)[C@@H]12 (some centres undefined)
124

The reported EC50 value, Human immunodeficiency virus 1, for C=C(C)[C@@H]1CC[C@]2(NCCN3CCS(=O)(=O)CC3)CC[C@]3(C)[C@H](CC[C@@H]4[C@@]5(C)CC=C(c6ccc(C(=O)O)cc6)C(C)(C)[C@@H]5CC[C@]43C)[C@@H]12 reads 704

====

# procedure.text: Solubility of the compound in FeSSIF at pH 5.0
# Type: physicochemical
measurement.label: solubility (µg/mL)
Express it in µg/mL; write the number only.

Just so you know, measured solubility for C=C(C)[C@@H]1CC[C@]2(NCCN3CCS(=O)(=O)CC3)CC[C@]3(C)[C@H](CC[C@@H]4[C@@]5(C)CC=C(C6=CC[C@@](CF)(C(=O)O)CC6)C(C)(C)[C@@H]5CC[C@]43C)[C@@H]12.Cl.Cl came out at 800

====

# Tested on: Human immunodeficiency virus 1
# procedure.text: Antiviral activity against HIV1 harbouring T332S/V362I/prR41G mutant infected in human MT2 cells measured after 4 to 5 days by dual-luciferase reporter assay
# Assay type: functional, organism-based
# condition.details: Human immunodeficiency virus 1, MT2
measurement.label: pEC50
Quick note: pEC50 means taking -log10 of the concentration in moles per liter.

C=C(C)[C@@H]1CC[C@]2(NCCN3CCS(=O)(=O)CC3)CC[C@]3(C)[C@H](CC[C@@H]4[C@@]5(C)CC=C(C6=CCC(OC(C)C)(C(=O)O)CC6)C(C)(C)[C@@H]5CC[C@]43C)[C@@H]12 (some centres not stated)
6.01

Okay, now this compound:
The reported pEC50 value, Human immunodeficiency virus 1, for C=C(C)[C@@H]1CC[C@]2(NCCN3CCC(S(C)(=O)=O)CC3)CC[C@]3(C)[C@H](CC[C@@H]4[C@@]5(C)CC=C(C6=CCC(CF)(C(=O)O)CC6)C(C)(C)[C@@H]5CC[C@]43C)[C@@H]12 (some centres not stated) reads 8.18
